Format: physicochemical
Set-up: key: 1 = fibrils present; 0 non-fibrillar structures
Conditions: Fig S10 panel D
assay-readout: TEM 2cat
Please respond with just the number, no unit label.

Please review the entries below; each comes with its answer.
* KIKQIINM | 1
* RGDKIRGDKI | 0
* CKFKFQFNM | 1
* CKFKQFFNM | 1

# lookup: TEM 2cat of CEIEIQI
1

# lookup: TEM 2cat of TKTLTKTL
0

# lookup: TEM 2cat of QCKFKFQFNMWQ
1

# lookup: TEM 2cat of FKFDKFKFDK
0

# lookup: TEM 2cat of CRFRFQF
1

# lookup: TEM 2cat of EFEFQF
0

# lookup: TEM 2cat of CKYKYQY
0

# lookup: TEM 2cat of RPRGLLLGNLR
0

# lookup: TEM 2cat of NMWQKVGTPL
0

# lookup: TEM 2cat of KNERIKNERI
0

# lookup: TEM 2cat of RGEKIKIQINM
1

====

TEM 2cat overview
Assay type: physicochemical
Parameters: key: 1 = fibrils present; 0 non-fibrillar structures
Conditions: Fig S10 panel D

# lookup: TEM 2cat of KAKAQA
0

# lookup: TEM 2cat of CKIKIQIII
1

# lookup: TEM 2cat of CRFRVPF
0

# lookup: TEM 2cat of QCKIKQIINMWQ [reference compound]
1

====

Test: Zeta-potential measurement
Type: physicochemical
Conditions: zeta-potential of the peptide assemblies; mean; Figure 3A source data
Zeta-Potential / mV overview
Enter your answer as a number in mV; do not include the unit.

Please review the entries below; each comes with its answer.
• CKIKIQIRGD = 7.16
• KIKQIINMWQ = 15.37
• QCKFKQFFNM = 13.67

# lookup: Zeta-Potential / mV of CKIKQII
-3.83

# lookup: Zeta-Potential / mV of KFKQFFINMWQ
7.99

# lookup: Zeta-Potential / mV of KFKFQFW
6.49

# lookup: Zeta-Potential / mV of RGDKIKIQINMWQ
6.59

# lookup: Zeta-Potential / mV of HLHLPLL
-9.05

====

Format: physicochemical
Design: key: 1 = fibrils present; 0 non-fibrillar structures
Details: Fig S10 panel D
assay-readout: TEM 2cat
Please respond with just the number, no unit label.

Please review the entries below; each comes with its answer.
* KIKIQINMW | 1
* NMWQKIKIQI | 1
* CKAKAQANM | 0

# lookup: TEM 2cat of QCKFKQFFNMWQ
1

# lookup: TEM 2cat of KIKIKIKIYYYY
0

# lookup: TEM 2cat of NMWQKIKQII
0

# lookup: TEM 2cat of QCKAKAQANM
0

# lookup: TEM 2cat of CKFKFQFNMW
1

# lookup: TEM 2cat of KIKIQINAWQ
1

====

Assay: Turbidity, derived count rate of scattered light
Format: physicochemical
Details: derived count rate of scattered light; mean, std deviation in next column
The label is YES for Zeta Count Rate / kcps below 1000 kcps and NO for Zeta Count Rate / kcps equal to or exceeding 1000 kcps.

# count of solved cases: 3
- KIKIQINMWQ [JG1]: NO
- RGDCKFKFQF [TM64/ CN15]: NO
- CKIKQIINMWQ [MG5a / CK17]: NO

Please check: Zeta Count Rate / kcps for KAKAKAQA [TG15] , strictly under 1000 kcps or not?
YES

Please check: Zeta Count Rate / kcps for KFKFQFNM [BL6a] , strictly under 1000 kcps or not?
YES

Please check: Zeta Count Rate / kcps for RGDSKIKIQIC [TM113 / RC11] , strictly under 1000 kcps or not?
NO

Please check: Zeta Count Rate / kcps for KIKQIINM [JGA2] , strictly under 1000 kcps or not?
NO

Please check: Zeta Count Rate / kcps for CKWKWQW [KB4] , strictly under 1000 kcps or not?
NO

Please check: Zeta Count Rate / kcps for KIKQII [msis21] , strictly under 1000 kcps or not?
YES

====

Test system: HIV-1 infection of TZM-bl cells
Assay: HIV-1 infectivity enhancement assay, β-galactosidase luminescence
Type: cell-based
Conditions: log10 of HIV-1 infection of TZM-bl cells relative to EF-C; Fig S15 source data; asymmetric std dev errors
assay-readout: Log10 Inf. rel. to EF-C
Please respond with just the number, no unit label.

Please review the entries below; each comes with its answer.
- CKIKIQIII [AR0 / F19]: -0.01045
- CKIKIQIRGD [psis21]: -0.4842
- CKFKFQFNMW [KB14]: -0.01766

Report Log10 Inf. rel. to EF-C for EIEIEIEI [JR12] tested on HIV-1 infection of TZM-bl cells.
-1.748

Report Log10 Inf. rel. to EF-C for QCKAKAQANMWQ [CK22] tested on HIV-1 infection of TZM-bl cells.
-1.144

Report Log10 Inf. rel. to EF-C for KFKQFFNMWQ [JG5] tested on HIV-1 infection of TZM-bl cells.
-1.0494

Report Log10 Inf. rel. to EF-C for NMWQKFKFQF [JG11] tested on HIV-1 infection of TZM-bl cells.
-0.5672

Report Log10 Inf. rel. to EF-C for KFKFQF [JJA6] tested on HIV-1 infection of TZM-bl cells.
-1.213

Report Log10 Inf. rel. to EF-C for HLHLPLL [CN14] tested on HIV-1 infection of TZM-bl cells.
-1.9991

Report Log10 Inf. rel. to EF-C for RGEKIKIQINM [CN18] tested on HIV-1 infection of TZM-bl cells.
-0.6134

Report Log10 Inf. rel. to EF-C for KIKIQINMWA [JR1] tested on HIV-1 infection of TZM-bl cells.
-0.1642

Report Log10 Inf. rel. to EF-C for KAKAQA [JJA2 / TM153] tested on HIV-1 infection of TZM-bl cells.
-1.743

Report Log10 Inf. rel. to EF-C for KWKWQW [KB3] tested on HIV-1 infection of TZM-bl cells.
-1.838

====

Assay: Turbidity, derived count rate of scattered light
Format: physicochemical
Settings: log10 of derived count rate of scattered light, Figure 7B
assay-readout: Log10 Count Rate

Please review the entries below; each comes with its answer.
- LASLIYR [reference compound]: 2.0205
- GYVIIK [reference compound]: 1.476
- NKGAII [reference compound]: 1.831
- LANWMCLAKW [reference compound]: 4.178
- VLYVGSKT [reference compound]: 1.386
- IFQINS [reference compound]: 1.56
- VHDCVNITIK [reference compound]: 4.098
- ISKLEYSNFSVRY [reference compound]: 3.893
- KLVFFAK [reference compound]: 1.159
- IIKIIK [reference compound]: 0.6128

# lookup: Log10 Count Rate of RCELARTLKR [reference compound]
1.893

# lookup: Log10 Count Rate of NSGAITIG-NH2 [reference compound]
1.294

# lookup: Log10 Count Rate of IKFLSVN [reference compound]
2.136

====

Assay: Turbidity, derived count rate of scattered light
Assay type: physicochemical
Details: derived count rate of scattered light at 633 nm, 173°, from zeta-potential measurement, 0.1 mg/mL in 1 mM KCl after 1 d at 1 mg/mL in PBS; turbidity / microscopic aggregation; mean of triplicate
Count Rate / kcps overview
Enter your answer as a number in kcps; do not include the unit.

- KIKIQINMWQ: 2196
- SISISRRI: 25
- KIKIWIW: 607.7

# lookup: Count Rate / kcps of HGEHGE
241

# lookup: Count Rate / kcps of KLKLTLT
198.5

# lookup: Count Rate / kcps of CKAKAQANMWQ
9

# lookup: Count Rate / kcps of KYKGAIIGNIK
44

# lookup: Count Rate / kcps of KIKIQIMQWN
2203

====

Assay: Aggregate analysis by widefield fluorescence microscopy
Assay type: physicochemical
Conditions: Fig S8 panels A, C
Procedure: 4 µL of 1 mg/mL peptide fibrils solution is added to a 20 µL, 50 µM ThT–solution in PBS. The mixture is incubated for 15 min at RT to allow binding of ThT dye with β–sheet rich structures. […] Fluorescence spectra were recorded on an Infinite® M1000 PRO microplate reader (Tecan) at λem = 488 nm upon excitation at λex = 440 nm with 10 nm bandwidths and multiple reads per well (3×3). […] Furthermore, fluorescence microscopy was conducted by staining 1 µL preformed fibrils (1 mg/mL) with 9 µL ThT (50 µM). […]
Would you mind classing the entries by Median Area in 3 * (1330 µm *1330 µm)? Ranges: small value: < 20; mid value: ≥ 20 and < 40; large value: ≥ 40

• KFKFQFNMWQ [JG4] = mid value
• CKFKQFF [CK15] = large value
• KIKQIIN [JGA3] = small value
• QCKIKIQINMWQ [EF-C opt] = small value
• KIKIQIN [JGB3] = large value
• CSISIQI [TM141] = small value
• KIKIQIC [TM112 / CN11] = small value
• RGDSGGGGGGKIKIQIC [TM114 / RC17] = large value

Quick check: band for QCKIKQIINMWQ [reference compound]
mid value
